# Target Of Assay: Torsin-1A (Homo sapiens)
# Experiment Description: torsin A mutant lysate binding on microarrays – cell lysate, small-molecule microarray, COS7 lysate, 635/667 nm fluorescence, primary screen (AID 1150);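 further: score pools 667 nm emission and signal to noise measuring lysate protein binding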
# Measurement Parameters: COS7 hTOR1A mutant lysate, 635 nm fluorescence, higher = more signal
Attribute Measured: composite z-score

Check out these entries, answers already filled in.
molecule=C=CC[C@@]1(C(=O)N2CCCCC2)N=C(c2ccc(OCCCO)cc2)O[C@@H]1c1ccccc1N=[N+]=[N-] target_of_assay="Torsin-1A (Homo sapiens)" readout_value=1.03
molecule=O=C(CS)NCCCCCNC(=O)[C@H]1C[C@H]2C(=O)NCC(=O)N2[C@H]1c1cccc(OCCO)c1 target_of_assay="Torsin-1A (Homo sapiens)" readout_value=-0.0418
molecule=COC(=O)C(CC#Cc1ccc2c(c1)[C@]1(C(=O)N2)[C@H](c2ccccc2OCCO)N2[C@H](c3ccccc3)[C@H](c3ccccc3)OC(=O)[C@H]2[C@@H]1C(N)=O)C(=O)OC target_of_assay="Torsin-1A (Homo sapiens)" readout_value=0.434

Hey, can you go through the list below and give me composite z-score for every item?
1. C=CC[C@]1(C(N)=O)COC(c2ccc(OCCCO)cc2)=N1
2. COc1cc2c(cc1OC)CN(C(=O)[C@H]1[C@@H]3C(=O)O[C@@H](c4ccccc4)[C@@H](c4ccccc4)N3[C@@H](c3ccccc3OCCO)[C@]13C(=O)Nc1ccc(C#CCCO)cc13)CC2
3. O=C1C2C=CC(C(O)COCc3ccccc3)N(Nc3ccc([N+](=O)[O-])cc3)C2C(=O)N1c1ccccc1 (stereo not given)
4. Cc1ccc([C@H]2C(C(=O)O)=CCN2S(=O)(=O)c2ccc(C)cc2)cc1
5. COc1ccc([C@H]2OC[C@@H]3CCC(=O)N32)cc1
6. O=C1OCCC=C[C@H]2OC34C=CCN(Cn5nnc6ccccc65)C(=O)[C@H]3N(CCO)C(=O)[C@@H]4C12 (stereo not given in full)
7. O=C(NCCN1CCOCC1)[C@@H]1c2ccccc2C(=O)N(Cc2cc(C(F)(F)F)cc(C(F)(F)F)c2)[C@H]1c1ccc(CO)cc1

Result:
1.18
0.142
0.165
0.435
0.214
-1.32
0.133

Each molecule below has a recorded value; state its composite z-score.
1. CC#CC(=O)Oc1ccc(Br)cc1C=CC(=O)OCC
2. O=C1C[C@@](C(=O)NCc2ccccc2)(c2ccc([N+](=O)[O-])cc2)[C@@H](c2ccc(CO)cc2)N1CC12CC3CC(CC(C3)C1)C2
3. CC[C@@H]1C=C(C(=O)O)[C@H](c2ccc(C)cc2)N1S(=O)(=O)c1ccc(C)cc1
4. CCCCC(=C=CC[C@@H](O)c1ccc(CO)o1)CCO

Result:
[-0.329, 0.368, 0.247, 0.359]

Query: Please look at this molecule and report its composite z-score: C[C@H]1C2[C@H](Cc3ccccc3)NC(=O)[C@]23C(=O)NCC(=O)N2CCC[C@H]2C(=O)NC/C=C/CCC/C=C/C3[C@@H]2O[C@]12C (stereo not given in full)
Result: -0.333
